Entries and their LE (ligand efficiency)
- TARGET_OR_SYSTEM: LdtMt2 (Mycobacterium tuberculosis, UniProt I6Y9J2)
- Sequence (I6Y9J2 56-408): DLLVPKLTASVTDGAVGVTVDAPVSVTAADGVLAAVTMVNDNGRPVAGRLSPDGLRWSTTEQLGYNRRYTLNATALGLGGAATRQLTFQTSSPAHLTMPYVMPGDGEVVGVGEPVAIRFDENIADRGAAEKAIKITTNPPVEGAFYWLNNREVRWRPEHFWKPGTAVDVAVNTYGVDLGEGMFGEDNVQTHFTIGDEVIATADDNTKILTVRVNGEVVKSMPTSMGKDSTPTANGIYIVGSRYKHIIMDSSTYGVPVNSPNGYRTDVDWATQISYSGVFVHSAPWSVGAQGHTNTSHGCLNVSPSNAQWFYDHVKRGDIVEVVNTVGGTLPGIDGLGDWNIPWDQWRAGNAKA
- EXPERIMENT_DESCRIPTION: biochemical
- Format: biochemical
- Design: made in house; host or cells: E. coli
- CONDITION_DESCRIPTION: Table S5; for LdtMt2
Output spec: single numeric token, no unit.

COc1cccc(NC(=O)/C(Cl)=C(\Cl)S(=O)(=O)Cc2ccccc2Cl)n1 ... 0.43
O=C1C=CC(=O)N1c1ccccc1 ... 0.86
NC(=O)C=CC(=O)Nc1ccc(Cl)cc1 ... 0.75
N#Cn1c(-c2cnc(-c3cccs3)nc2)nc2ccccc21 ... 0.51

Request: LE (ligand efficiency), test system LdtMt2 (Mycobacterium tuberculosis, UniProt I6Y9J2), entry `Cn1c(SCC2=C(C(=O)O)N3C(=O)[C@@H](NC(=O)COc4ccccc4)[C@H]3SC2)n[nH]c1=O`
0.35

Another compound: `CS(=O)(=O)c1ccc(F)c(N2C(=O)C=CC2=O)c1`
0.62

Could you do the same for CCC(C)C(NC(=O)OCc1ccccc1)C(=O)CCl (stereo not shown) , please?
0.56

Same question, `CCOc1ccc(CN2C(=O)C(=O)c3cc(Br)cc(C)c32)cc1OC` this time
0.45

What do you get for `O=c1c2cc(Cl)c(Cl)cc2sn1CCO` ?
0.74

// next record `N#Cn1c(-c2ccc(F)cc2C(F)(F)F)nc2ccccc21`
0.51

----------
- TARGET_OR_SYSTEM: LdtMt2 (Mycobacterium tuberculosis)
- EXPERIMENT_DESCRIPTION: biochemical
- Type: binding
- Set-up: made in house; host or cells: E. coli
- CONDITION_DESCRIPTION: 5 µM LdtMt2, 500 µM inhibitor, SYPRO Orange, 50 mM Tris pH 7.5
PROPERTY_LABEL: Tm: melting point of LdtMt2 after pre-incubation with the compound (°C)
Reply numerically in °C, unit not repeated.

Here's what some known entries look like.
O=C1C=CC(=O)N1c1ccccc1 ... 45.0
CCOc1ccc(CN2C(=O)C(=O)c3cc(Br)cc(C)c32)cc1OC ... 46.8
CCC(C)C(NC(=O)OCc1ccccc1)C(=O)CCl (stereo not drawn) ... 43.7
N#Cn1c(-c2ccc(F)cc2C(F)(F)F)nc2ccccc21 ... 42.5
O=c1c2cc(Cl)c(Cl)cc2sn1CCO ... 43.5

Can you share its Tm: melting point of LdtMt2 after pre-incubation with the compound? I mean this compound: `CS(=O)(=O)c1ccc(F)c(N2C(=O)C=CC2=O)c1`
45.6

Next: `N#Cn1c(-c2cnc(-c3cccs3)nc2)nc2ccccc21`
42.1

Can you check `NC(=O)C=CC(=O)Nc1ccc(Cl)cc1` next?
44.8

Follow-up item: `Cn1c(SCC2=C(C(=O)O)N3C(=O)[C@@H](NC(=O)COc4ccccc4)[C@H]3SC2)n[nH]c1=O`
42.9

----------
# ΔTm: difference in melting point of LdtMt2 relative to unreacted LdtMt2 (43.8 °C) annotations
- TARGET_OR_SYSTEM: LdtMt2 (Mycobacterium tuberculosis)
- EXPERIMENT_DESCRIPTION: biochemical
- Type: binding
- Set-up: made in house; host or cells: E. coli
Give your answer as a number; write no unit.

Use these answered entries as a reference point.
NC(=O)OCC1=C(C(=O)O)N2C(=O)C(NC(=O)C(=CS(=O)(=O)CCc3ccc(O)c(O)c3)c3csc(N)n3)C2SC1 (stereo not drawn) [Compound 20] ... -1.1
N#Cn1c(-c2ccncc2)nc2ccc(C(=O)c3ccccc3)cc21 [Compound 36] ... -3.0
Cc1nc(-c2ccc(-c3nc4ccccc4n3C#N)cc2)cs1 [Compound 30] ... -1.6
N#Cn1c(-c2ccncc2)nc2ccc(-c3ccncc3)cc21 [Compound 34] ... -1.7

Observed ΔTm: difference in melting point of LdtMt2 relative to unreacted LdtMt2 (43.8 °C) on LdtMt2 (Mycobacterium tuberculosis) for N#Cn1c(-c2ccncc2)nc2ccc(-c3cccnc3)cc21 [Compound 35] , please.
-0.9

Also check N#Cn1c(-c2ccc(-c3nccs3)cc2)nc2ccccc21 [Compound 29]
-0.9

Also N#Cn1c(-c2cc(F)cc(C(F)(F)F)c2)nc2ccccc21 [Compound 23] , if possible.
-1.3

----------
Readings of LE (ligand efficiency) for the listed molecules
- TARGET_OR_SYSTEM: LdtMt2 (Mycobacterium tuberculosis, UniProt I6Y9J2)
- EXPERIMENT_DESCRIPTION: biochemical
- Format: biochemical
- Parameters: made in house; host or cells: E. coli
Respond with the number and no other words.

Cc1ccc(C=CC(=O)Nc2ccccc2C(N)=O)o1 [Compound 11] ... 0.56
N#Cn1c(-c2ccncc2)nc2ccc(-c3ccncc3)cc21 [Compound 34] ... 0.49
N#Cn1c(-c2ccc(-c3nccs3)cc2)nc2ccccc21 [Compound 29] ... 0.51

Continue with the molecule presented below.
// query LE (ligand efficiency) value for entry CNC(C)C(=O)NC1CCN(c2ccc(N3CCCC3)cc2C#N)C1 (stereo not shown) [Compound 38]
0.45

----------
- TARGET_OR_SYSTEM: UniProt:I6Y9J2
- EXPERIMENT_DESCRIPTION: biochemical
- Assay type: binding
- Parameters: made in house; host or cells: E. coli
- CONDITION_DESCRIPTION: pH 7.5; in °C (unit assumed)
Quick list: Tm: melting point of LdtMt2 after pre-incubation with the compound per entry.
Answer with a number only.

CNC(C)C(=O)NC1CCN(c2ccc(N3CCCC3)cc2C#N)C1 (centres unmarked) ... 42.8

For the molecule shown here, `N#Cn1c(-c2ccc(OC3CCOCC3)cc2)nc2ccccc21` , give the reported Tm: melting point of LdtMt2 after pre-incubation with the compound.
42.3

----------
- TARGET_OR_SYSTEM: UniProt I6Y9J2
- EXPERIMENT_DESCRIPTION: biochemical
- Assay type: biochemical
- Set-up: made in house; host or cells: E. coli
- CONDITION_DESCRIPTION: Table S5 HTS hits; 30 minute inhibitor pre-incubation; two independent repeats; read-out: pIC50 LdtMt2 (converted)
Documented IC50 across a set of molecules
Return type: number; implicit unit nM.

Take a look at these entries with their results.
NC(=O)C=CC(=O)Nc1ccc(Cl)cc1 [Compound 13] ... 417
CCOc1ccc(CN2C(=O)C(=O)c3cc(Br)cc(C)c32)cc1OC [Compound 16] ... 178
N#Cn1c(-c2cnc(-c3cccs3)nc2)nc2ccccc21 [Compound 31] ... 47.9

Using the record for CCC(C)C(NC(=O)OCc1ccccc1)C(=O)CCl (stereo not shown) [Compound 2] , report its IC50.
77.6

----------
Each item that follows carries a reported IC50.
- TARGET_OR_SYSTEM: BlaC (Mycobacterium tuberculosis, UniProt P9WKD3)
- Construct: made in house; host or cells: E. coli
- Sequence (P9WKD3 35-307): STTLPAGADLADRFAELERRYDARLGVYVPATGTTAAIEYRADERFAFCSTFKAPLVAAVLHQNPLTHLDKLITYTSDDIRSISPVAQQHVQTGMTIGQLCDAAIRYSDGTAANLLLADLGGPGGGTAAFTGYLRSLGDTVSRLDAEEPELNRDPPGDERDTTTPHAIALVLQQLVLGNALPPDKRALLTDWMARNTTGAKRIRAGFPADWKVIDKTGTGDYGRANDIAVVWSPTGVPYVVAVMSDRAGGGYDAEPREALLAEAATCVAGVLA
- EXPERIMENT_DESCRIPTION: BlaC fluorogenic inhibition assay with FC5 (dose-response)
- Assay type: biochemical
- CONDITION_DESCRIPTION: Table S4 HTS validation; 30 minutes inhibitor pre-incubation; n=8; read-out: pIC50 BlaC (mean ± SD) (converted)
# unit: nM | format: bare number

C[C@@H](O)[C@H]1C(=O)N2C(C(=O)O)=C(S[C@@H]3CN[C@H](C(=O)Nc4cccc(C(=O)O)c4)C3)[C@H](C)[C@H]12 [Ertapenem, reference compound] ... 67.6
C[C@@H](O)[C@H]1C(=O)N2C(C(=O)[O-])=C(SC3Cn4cnc[n+]4C3)[C@H](C)[C@H]12 (stereo partly drawn) [Biapenem, reference compound] ... 479

// below: IC50 requested for another compound
# input compound: `C[C@@H](O)[C@H]1C(=O)N2C(C(=O)O)=C([C@H]3CCCO3)S[C@H]12` ; wanted: its IC50
468

----------
- TARGET_OR_SYSTEM: UniProt I6Y9J2
- EXPERIMENT_DESCRIPTION: biochemical
- Assay type: binding
- Parameters: made in house; host or cells: E. coli
- CONDITION_DESCRIPTION: pH 7.5
- Method: LdtMt2 (5 μM) was incubated with the inhibitor (500 μM) in assay buffer (50 mM tris pH 7.5) for 30 minutes at room temperature in 96-well white PCR plates (25 μL final volume, Starlab). […] Fluorescence was monitored (with λex = 492 nm and λem = 610 nm) using a CFX96 Touch Real-Time PCR Detection System (Bio-Rad), while the temperature was increased from 20 to 95 °C in increments of 0.2 °C. Melting temperatures (Tms) were determined using the CFX Maestro Software (Bio-Rad).
Collected Tm: melting point of LdtMt2 after pre-incubation with the compound values appear next to each entry.

Use these answered entries as a reference point.
O=C1C=CC(=O)N1c1ccc(Oc2ccccc2)c(Cl)c1 ... 43.6 ± 0.16 °C
O=C(OCN1C(=O)C=CC1=O)c1ccccc1 ... 43.1 ± 0.09 °C

Given the entry `Cc1ccc(C=CC(=O)Nc2ccc(S(N)(=O)=O)cc2)o1` , what Tm: melting point of LdtMt2 after pre-incubation with the compound was observed with UniProt I6Y9J2?
43.1 ± 0.09 °C

Now the same for `CC(C)(C)OC(=O)Nc1ccc(N2C(=O)C=CC2=O)cc1`
45.5 ± 0.09 °C

Source of measurements: paper PMC10321483
